System: NCI/ADR-RES ovarian
PROTOCOL_TEXT: NCI tumour cell line growth inhibition, 48 h; in the data active = GI50 below about 0.43 µM; inactive = the rest
Your response should consist of one outcome taken from active, inactive

Task: Answer briefly: the call reported for CNCCCNCCCCNCCCN1C(=O)c2ccc3c4c(ccc(c24)C1=O)C(=O)N(CCCNCc1ccccc1OC)C3=O in this assay.
Result: inactive

Task: Field: outcome | Entry: C/C(=C\c1ccc2ccccc2c1)[N+](=O)[O-]
Result: inactive

Task: Each compound tested received a call. Report the one for O=C(OCc1ccc2ccccc2n1)c1cn(C2CC2)c2cc(N3CCN(Cc4ccc5ccccc5n4)CC3)c(F)cc2c1=O .
Result: inactive

* * *

Form field: TGI (one value per entry).
System: HOP-62 NSCLC
PROTOCOL_TEXT: NCI tumour cell line growth inhibition, 48 h
Express the result in µM but write the number alone.

Below: 2 molecules and their reported TGI.
QUERY_SMILES | EXPERIMENTAL_RESULT
O=C(NC1=C(Cl)C(=O)c2ccccc2C1=O)c1ccc(F)cc1 | 26.8
COc1ccc2cc1Oc1ccc(cc1)C[C@H]1c3c(cc4c(c3Oc3cc5c(cc3OC)CCN(C)[C@@H]5C2)OCO4)CCN1C | 9.6

Turning to the following molecule.
The value of TGI measured for the molecule C/C(=C\c1ccc2ccccc2c1)[N+](=O)[O-] turned out to be 5.49
